biological target: T1, human MSLN-His-Avi (human, UniProt Q13421 296-598, single biotin (BirA) in the biotinylated form); assay: SPR (Biacore), mAb^2 captured on Protein G, MSLN in solution injected
T1 construct: Monomeric, made in HEK293-6E; Used both immobilised and in solution; also called hMSLN-His-Avi; biotinylated hMSLN-His-Avi
T1 sequence (Q13421 other isoform, or with tags, fused parts or gaps): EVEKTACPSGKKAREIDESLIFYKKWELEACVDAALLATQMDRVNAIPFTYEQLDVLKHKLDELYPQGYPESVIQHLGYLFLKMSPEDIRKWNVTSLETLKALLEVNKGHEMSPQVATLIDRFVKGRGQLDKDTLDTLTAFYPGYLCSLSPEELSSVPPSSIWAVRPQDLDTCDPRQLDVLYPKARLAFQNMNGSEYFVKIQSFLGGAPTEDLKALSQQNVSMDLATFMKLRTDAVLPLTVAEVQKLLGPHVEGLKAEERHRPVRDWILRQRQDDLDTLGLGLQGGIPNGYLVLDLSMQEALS
pKd: −log10 of the molar value.
Each entry gets False if its pKd stays under 7, and True if its pKd is 7 or above.

{"columns": ["binder", "label-value"],
 "data": [
  ["FS22-053-008-AA/FS28-024-052 mAb^2 (bispecific antibody, human IgG1, kappa, L234A L235A, V domains shown, also called FS28-024-52) VH: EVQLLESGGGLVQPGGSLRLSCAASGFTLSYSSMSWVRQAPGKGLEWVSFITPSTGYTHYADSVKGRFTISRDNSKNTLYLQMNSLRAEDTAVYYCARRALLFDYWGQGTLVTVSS VL: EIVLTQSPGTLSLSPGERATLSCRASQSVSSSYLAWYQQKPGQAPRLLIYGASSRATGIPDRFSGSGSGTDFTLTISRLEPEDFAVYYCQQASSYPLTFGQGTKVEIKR", "True"]
]}

IN: // inclusive: pKd at least 7? input: FS22-053-008-AA/FS28-024-053 mAb^2 (bispecific antibody, human IgG1, kappa, L234A L235A, V domains shown, also called FS28-024-53) VH: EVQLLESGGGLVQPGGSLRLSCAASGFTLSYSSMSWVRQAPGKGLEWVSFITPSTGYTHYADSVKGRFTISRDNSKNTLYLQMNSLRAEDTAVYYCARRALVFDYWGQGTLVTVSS VL: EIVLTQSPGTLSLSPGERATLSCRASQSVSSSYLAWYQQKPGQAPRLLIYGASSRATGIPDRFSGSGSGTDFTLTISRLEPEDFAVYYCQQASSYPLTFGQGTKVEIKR
OUT: True

IN: Let us now turn to FS22-053-008-AA/FS28-256-021 mAb^2 (bispecific antibody, human IgG1, kappa, L234A L235A, V domains shown) VH: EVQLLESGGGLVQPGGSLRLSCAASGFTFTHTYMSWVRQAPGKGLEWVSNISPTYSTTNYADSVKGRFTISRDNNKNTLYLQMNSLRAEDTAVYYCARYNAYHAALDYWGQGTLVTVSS VL: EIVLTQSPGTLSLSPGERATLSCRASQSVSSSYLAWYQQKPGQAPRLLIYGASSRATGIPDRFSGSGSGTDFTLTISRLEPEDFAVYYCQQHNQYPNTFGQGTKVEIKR
OUT: True

IN: Let us now turn to FS22-053-008-AA/FS28-185 (bispecific antibody, human IgG1, kappa, L234A L235A, V domains shown) VH: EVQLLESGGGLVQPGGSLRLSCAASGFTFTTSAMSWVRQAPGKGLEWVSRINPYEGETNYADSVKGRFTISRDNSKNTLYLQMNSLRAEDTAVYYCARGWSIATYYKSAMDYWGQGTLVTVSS VL: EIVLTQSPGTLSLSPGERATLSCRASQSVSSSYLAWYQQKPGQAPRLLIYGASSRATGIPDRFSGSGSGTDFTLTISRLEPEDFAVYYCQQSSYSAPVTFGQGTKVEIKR
OUT: False

All figures here come from patent US20220267421A1.
